# system-under-test: MAGL (Homo sapiens)
# Sequence (Q99685 whole entry): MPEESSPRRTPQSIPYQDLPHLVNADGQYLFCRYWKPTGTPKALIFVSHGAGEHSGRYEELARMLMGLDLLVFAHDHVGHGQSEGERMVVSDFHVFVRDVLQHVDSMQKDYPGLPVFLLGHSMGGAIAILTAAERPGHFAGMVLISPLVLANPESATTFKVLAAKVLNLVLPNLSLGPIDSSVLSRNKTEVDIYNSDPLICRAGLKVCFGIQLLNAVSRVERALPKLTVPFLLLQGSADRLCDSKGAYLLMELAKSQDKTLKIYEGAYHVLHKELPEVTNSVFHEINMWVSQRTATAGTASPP
# test-method-notes: In vitro competitive substrate hydrolysis enzyme activity assay (pNPA), HEK293 cell lysates
# Format: biochemical
# Design: expressed in transfected cells; host or cells: HEK293
# test-context: HEK293 lysate
# maps each entry to its IC50
property-measured: IC50 (µM)

| compound | system-under-test | property-measured | measured |
| --- | --- | --- | --- |
| O=C(OC(C(F)(F)F)C(F)(F)F)N1CCC2(CC1)CC2C(=O)N1CCc2nc(C3CC3)ncc2C1 (single isomer, unassigned) [Example 63] | MAGL (Homo sapiens) | IC50 | 0.0169 |
| Cc1ncccc1NC(=O)C1CC12CCN(C(=O)OC(C(F)(F)F)C(F)(F)F)CC2 (single isomer, unassigned) [Example 70] | MAGL (Homo sapiens) | IC50 | 0.985 |
| CN(C(=O)C1CC12CCN(C(=O)OC(C(F)(F)F)C(F)(F)F)CC2)c1cccnn1 (racemic) [Example 188] | MAGL (Homo sapiens) | IC50 | 0.249 |

# credit: patent US20240018120A1
